Literature survey of pIC50 (system: Coagulation factor X (Homo sapiens)).
Note: pIC50 values are expressed as the negative base-10 logarithm of concentration in M.

Name the recorded pIC50 for CC(C)CNC(=O)c1ccc(-c2ccc(-c3occc3CO)cc2C(=O)Nc2ccc(C(=N)N)cc2)c(C(=O)O)c1 .
6.82

Moving on to CN1CCc2nc(C(=O)N[C@@H]3C[C@@H](C(=O)N(C)C)CC[C@@H]3NC(=O)c3cc4ccc(Cl)cc4nn3)sc2C1
8.48

Moving on to C[C@@]1(CO)C[C@@H](O)C[C@]2(C)[C@@H]1CC[C@@]13O[C@@H](CO)[C@@](C)(CC[C@@H]21)[C@H]3Br
5.33

Moving on to CCOC(=O)[C@]1(C)CCC[C@@]2(C)[C@@H]3CC[C@@]4(C)C[C@]3(CC[C@@H]21)C[C@H]4OCc1cn(-c2cc(C)cc(C)c2)nn1
5.20

Moving on to COCC(=O)N1CC[C@H](NC(=O)c2cc3cc(Cl)ccc3[nH]2)[C@H](NC(=O)c2nc3c(s2)CN(C)CC3)C1
8.24

Moving on to N=C(N)c1cccc(CC(C(=O)O)C(/C=C/c2ccccc2)NC(=O)c2ccc(-c3ccccc3)cc2)c1 (configuration not stated)
5.57

Moving on to C[C@]12CC[C@@H]3[C@](CC[C@@H]4[C@](C)(CO)C[C@@H](O)C[C@]43C)(C1)OC2=O
5.77

Moving on to O=C(Nc1ccc(Cl)cc1C(=O)Nc1ccc(Cl)cn1)c1ccc(-c2cccc(N3CCCNCC3)c2)cc1
7.49

Moving on to CN1CCc2nc(C(=O)N[C@@H]3CCCC[C@@H]3CNC(=O)c3ccc(Cl)s3)sc2C1 (relative stereo)
7.57

Moving on to CN1CCc2nc(C(=O)N[C@@H]3C[C@@H](C(=O)N(C)C)CC[C@@H]3NC(=O)c3cc(=O)c4cc(Cl)ccc4[nH]3)sc2C1
9.37

Moving on to CN1CCc2nc(C(=O)N3CCN(S(=O)(=O)c4ccc5cc(Cl)ccc5c4)CC3)sc2C1
7.66

Moving on to COc1ccc(N/C(=N\C(=O)c2ccno2)N[C@H]2CCCCN(CC(=O)N3CCCC3)C2=O)cc1
6.42

Moving on to O=C(Nc1ccc(Cl)cc1C(=O)Nc1ccc(Cl)cn1)c1ccc(-c2ccccc2N2CCCC2)cc1
8.55

Moving on to CC(=N)N1CCC(Oc2ccc(OCc3nc4cc(C(=N)N)ccc4n3CC(=O)Nc3ccc(Cl)c(Cl)c3)cc2)CC1
7.22

Moving on to CCc1ccccc1-c1ccc(C(=O)NC(/C=C/c2ccccc2)C(Cc2cccc(C(=N)N)c2)C(=O)OC)cc1 (configuration not stated)
6.42

Moving on to Cc1cc(C(=O)Nc2ccc(C(=O)N3CCCCC3)cc2)n(-c2ccc3cc(Cl)ccc3c2)n1
7.18

Moving on to Cc1cc(NC(=O)[C@@H](CO)NC(=O)c2ccc(Cl)s2)ccc1N1CCOCC1=O
7.54

Moving on to Cc1cc(C(=O)Nc2ccc(C(=N)N(C)C)s2)n(-c2cc3ccccc3cc2F)n1
6.29

Moving on to CC(C)N1CCC(C(=O)Nc2ccccc2CNC(=O)c2ccc(Cl)s2)CC1
6.69

Moving on to CC(CCc1ccccc1)Nc1c(F)c(Oc2cccc(C(=N)N)c2)nc(Oc2ccc(C(=O)NC(CO)CO)cc2C(=O)O)c1F (configuration not stated)
4.89
